Assay Target: full-length human GLP-1R with an N-terminal FLAG tag (human, UniProt P43220 24-463)
Assay: cell-based or functional assay
Starred links: 1 amine or outer side, 2 acyl side, 3 side chain; linkers in the order of their positions; H or OH if unused. Non-standard residues stand in square brackets, D forms with d. Groups on a side chain read outwards from the residue. No end group written: not given here. *: point of attachment. C16 diacid = O=C(O)CCCCCCCCCCCCCCC(=O)*; γGlu = O=C(O)[C@H](CCC(=O)[*:2])N[*:1]; NMeY = CN[C@@H](Cc1ccc(O)cc1)C(=O)O; AEEA = NCCOCCOCC(=O)O; Aib = CC(C)(N)C(=O)O
Measured Metric: Human GLP1R cAMP HEK293T EC50 (nM)
Give the value, in units of nM, as a plain number.

binder="[NMeY][Aib]EGTFISDYSIALDRIHQ[Aib]K([AEEA-AEEA-γGlu-C16 diacid])FVNWLLAQK [Compound 9]" measured_metric="Human GLP1R cAMP HEK293T EC50" recorded_measurement=95.5

Attention now turns to another entry.
# Human GLP1R cAMP HEK293T EC50 (binder: YXEGTFISDYSIALDRXHQXDFVNWLLAQSPSSGAPPPS (not fully specified; Me-Tyr1; Aib 2,20; Km17 = Lys(gE-C15DA); C-term NH2) [Compound 69] ) is 1000
